Lab note: pKi readings collected with D(3) dopamine receptor (Homo sapiens, UniProt P35462) for the following compounds.
Sequence (P35462 whole entry): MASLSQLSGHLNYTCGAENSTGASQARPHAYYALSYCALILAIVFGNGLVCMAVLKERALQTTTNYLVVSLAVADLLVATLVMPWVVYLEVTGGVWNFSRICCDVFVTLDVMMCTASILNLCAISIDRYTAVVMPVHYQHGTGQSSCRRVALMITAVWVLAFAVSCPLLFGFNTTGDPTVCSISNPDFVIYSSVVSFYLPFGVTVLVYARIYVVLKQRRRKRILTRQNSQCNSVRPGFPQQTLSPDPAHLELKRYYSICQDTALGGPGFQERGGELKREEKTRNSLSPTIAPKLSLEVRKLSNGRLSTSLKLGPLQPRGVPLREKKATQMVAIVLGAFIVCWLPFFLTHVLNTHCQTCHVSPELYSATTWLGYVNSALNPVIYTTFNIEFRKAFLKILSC
Scale: pKi equals -log10([C]), with [C] in mol/L.

C1=C(c2ccccc2)CCN(CCc2c[nH]c3ncccc23)C1 = 8.00

Form entry - test system: D(3) dopamine receptor (Homo sapiens, UniProt P35462); read-out: pKi; compound: COc1ccc(N2CCN(CCc3c[nH]c4ncccc34)CC2)cc1
6.28

Write down the reported pKi of C1=C(/C=C/c2ccccc2)CCN(CCc2cc3ccc[nH]c-3n2)C1 , test system: D(3) dopamine receptor (Homo sapiens, UniProt P35462).
7.60

Enter reported pKi observed with D(3) dopamine receptor (Homo sapiens, UniProt P35462) for Clc1ccc(N2CCN(CCc3cc4cccnc4[nH]3)CC2)cc1
7.30

Give pKi (D(3) dopamine receptor (Homo sapiens, UniProt P35462)) of the following compound: C1=C(/C=C/c2ccccc2)CCN(CCc2c[nH]c3ncccc23)C1
6.74

* * *

D(2) dopamine receptor (Homo sapiens): recorded Ki for assorted molecules
Sequence (P14416 whole entry): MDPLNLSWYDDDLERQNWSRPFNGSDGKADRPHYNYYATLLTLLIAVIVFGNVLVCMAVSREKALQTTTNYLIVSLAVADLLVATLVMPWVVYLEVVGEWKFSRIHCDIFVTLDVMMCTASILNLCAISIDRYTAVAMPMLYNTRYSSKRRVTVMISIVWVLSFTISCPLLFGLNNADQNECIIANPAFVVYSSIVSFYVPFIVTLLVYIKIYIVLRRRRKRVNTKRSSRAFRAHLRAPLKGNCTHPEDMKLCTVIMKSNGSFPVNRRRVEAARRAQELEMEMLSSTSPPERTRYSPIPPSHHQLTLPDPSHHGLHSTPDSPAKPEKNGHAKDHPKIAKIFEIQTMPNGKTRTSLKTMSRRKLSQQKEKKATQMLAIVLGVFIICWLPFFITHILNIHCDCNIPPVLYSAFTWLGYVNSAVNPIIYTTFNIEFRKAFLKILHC
Lab book: enter the figure in nM, no units written.

C1=C(/C=C/c2ccccc2)CCN(CCc2cc3ccc[nH]c-3n2)C1 = 1300
C1=C(/C=C/c2ccccc2)CCN(CCc2c[nH]c3ncccc23)C1 = 280
COc1ccc(N2CCN(CCc3c[nH]c4ncccc34)CC2)cc1 = 900
c1ccc(CCC2CCN(Cc3c[nH]c4ncccc34)CC2)cc1 = 1100
C1=C(c2ccccc2)CCN(CCc2c[nH]c3ncccc23)C1 = 21

Bench note: what Ki did Clc1ccc(N2CCN(CCc3cc4cccnc4[nH]3)CC2)cc1 show?
800

* * *

Below, each entry is listed alongside its reported Ki.
Biological target: D(4) dopamine receptor (Homo sapiens)
Sequence (P21917 whole entry): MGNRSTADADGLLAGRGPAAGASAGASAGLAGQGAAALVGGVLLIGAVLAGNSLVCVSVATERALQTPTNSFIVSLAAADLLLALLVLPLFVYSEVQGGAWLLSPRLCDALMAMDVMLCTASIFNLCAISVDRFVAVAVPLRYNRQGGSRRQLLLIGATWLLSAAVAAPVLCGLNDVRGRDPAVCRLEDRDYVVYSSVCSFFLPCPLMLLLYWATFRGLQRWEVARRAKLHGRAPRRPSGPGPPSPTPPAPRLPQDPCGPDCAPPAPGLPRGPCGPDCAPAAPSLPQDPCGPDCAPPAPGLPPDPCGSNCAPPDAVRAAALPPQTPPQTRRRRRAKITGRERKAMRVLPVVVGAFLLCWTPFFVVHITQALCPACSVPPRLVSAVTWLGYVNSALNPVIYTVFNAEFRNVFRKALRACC
Reply with just the number (in nM).

c1ccc(CCC2CCN(Cc3cc4ccc[nH]c-4n3)CC2)cc1 = 2
C1=C(/C=C/c2ccccc2)CCN(CCc2cc3ccc[nH]c-3n2)C1 = 30
COc1ccc(N2CCN(CCc3c[nH]c4ncccc34)CC2)cc1 = 26
C1=C(c2ccccc2)CCN(CCc2c[nH]c3ncccc23)C1 = 34

Bench note: what Ki did Clc1ccc(N2CCN(CCc3cc4cccnc4[nH]3)CC2)cc1 show?
11.7

I'd like to know its Ki. The compound in question is c1ccc(CCC2CCN(Cc3c[nH]c4ncccc34)CC2)cc1
1.8
